B1: Receptor-interacting serine/threonine-protein kinase 2, residues 438 to 518; numbered along this chain, O43353 (parent)
chain: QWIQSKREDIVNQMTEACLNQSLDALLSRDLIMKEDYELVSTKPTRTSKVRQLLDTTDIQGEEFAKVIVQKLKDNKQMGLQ

Variants of: B1
Assay: abundance fitness (aPCA) (normalised: wild type 0, dead -1); higher = more abundant; growth selection in yeast, the domain comes from the species named
Conditions: Homo sapiens

| mutations | abundance fitness |
| --- | --- |
| V50D | -0.493 |
| L54G | -0.519 |
| L53Y | -0.821 |
| K34C | -0.199 |
| G61C | -0.083 |
| D58R | -0.154 |
| Y37K | -0.412 |
| F64A | 0.131 |
| K71D | -0.381 |
| K34H | -0.528 |
| I32M | -0.183 |
| T42C | -0.108 |
| S28I | -0.475 |
| I32H | -0.527 |
| E62D | -0.648 |
| D55Q | -0.277 |
| L53W | -0.595 |
| T47C | -0.254 |
| A65D | -0.569 |
| E35R | -0.043 |
| K43P | -0.695 |
| L31G | -0.798 |
